Origin of measurements: paper PMC7566517

targetSystem: T1, recombinant human HER4 ECD, biotinylated (human, UniProt Q15303 26-651, biotinylated (site not stated))
T1 construct: human epidermal growth factor receptor family member 4 (HER4, ErbB4), extracellular domain; Captured on streptavidin biosensors by its biotin; also called ErbB4; source: in-house purified recombinant
T1 sequence (looked up): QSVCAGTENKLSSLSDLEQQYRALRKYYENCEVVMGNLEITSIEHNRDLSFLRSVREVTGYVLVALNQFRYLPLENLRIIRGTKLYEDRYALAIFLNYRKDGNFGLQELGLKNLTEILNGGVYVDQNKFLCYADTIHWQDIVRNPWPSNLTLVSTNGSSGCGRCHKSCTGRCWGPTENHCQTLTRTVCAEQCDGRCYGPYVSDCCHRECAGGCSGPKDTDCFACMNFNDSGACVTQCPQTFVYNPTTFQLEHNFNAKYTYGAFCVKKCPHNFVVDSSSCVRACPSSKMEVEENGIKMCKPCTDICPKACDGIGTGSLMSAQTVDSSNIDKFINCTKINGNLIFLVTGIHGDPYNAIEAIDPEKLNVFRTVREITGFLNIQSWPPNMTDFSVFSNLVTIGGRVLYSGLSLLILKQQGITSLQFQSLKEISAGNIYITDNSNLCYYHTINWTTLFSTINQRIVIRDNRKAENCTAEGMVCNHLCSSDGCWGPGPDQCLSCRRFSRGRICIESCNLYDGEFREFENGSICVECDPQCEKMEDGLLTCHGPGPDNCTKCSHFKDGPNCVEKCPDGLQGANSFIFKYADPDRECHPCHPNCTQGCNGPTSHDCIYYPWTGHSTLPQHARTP
methodDescription: BLI; Octet 384; biotinylated HER4 or HER3 at 1 μg/mL captured on streptavidin biosensors; PBS pH 7.4, 3 mg/mL BSA, 0.05% Tween 20; serial dilutions of the variants; steady-state fit
conditionSummary: both partners purified
Hi there, I'd appreciate the recorded Kd for every entry that follows.
Answers are plain numbers, in nM.

NRG1-MFc fusion protein (NRG1 EGF domain fused with monomeric Fc) (Fc fusion, human, neuregulin-1 beta (NRG1b) EGF domain, about 60 amino acids; numbers count on: the EGF domain (His2, Cys45); also called neuregulin-MFc; parental clone; source: HEK293FT, transient transfection, purified (protein A); not shown: monomeric Fc (MFc C4)) GTSHLVKCAEKEKTFCVNGGECFMVKDLSNPSRYLCKCPNEFTGDRCQNYVMASF = 640

Please turn your attention to the following entry.
Consider the binder shown here: NRG1 fused with human serum albumin (ligand, UniProt Q02297-6 177-236, looked up, neuregulin 1 (NRG1) fused with HSA, control protein; Control protein; also called NRG1-HSA) SHLVKCAEKEKTFCVNGGECFMVKDLSNPSRYLCKCPNEFTGDRCQNYVMASFYKHLGIE What is its recorded Kd?
460
